The values you see were collected from patent US5312815A.

# experiment: Plasma level in dogs (HPLC)
# Type: in vivo, beagles (dogs)
# condition label: dog, plasma, po, 10 mg/kg, G2-β-CyD inclusion complex, 1 h
measurement type: concentration at 1 h (ng/mL)
Just the number please, in ng/mL, no unit attached.

Given item CC(C)(Sc1ccc(-n2cncn2)nn1)C(O)(Cn1cncn1)c1ccc(F)cc1F (single isomer, unassigned; (+)) , the value recorded as its concentration at 1 h is 2800

---

# experiment: Plasma level in dogs (HPLC)
# Format: in vivo, beagles (dogs)
# condition label: dog, plasma, po, 10 mg/kg, suspension in 0.5% MC, 24 h
# Procedure: Two beagles per group each received an oral preparation of an inclusion complex composed of the compound of Example 1 and maltosyl-β-cyclodextrin (G2 -β-CyD) at a dose of 10 mg of the compound of Example 1 per kg-b.w. or an intravenous injection of the inclusion complex at a dose of 5 mg of the compound of Example 1 per kg-b.w. […] After deproteination, the concentration of the compound of formula (I) in the sample was determined by high performance liquid chromatography (HPLC).
measurement type: concentration at 24 h (ng/mL)
Just the number please, in ng/mL, no unit attached.

Given item CC(C)(Sc1ccc(-n2cncn2)nn1)C(O)(Cn1cncn1)c1ccc(F)cc1F (single isomer, unassigned; (+)) , the value recorded as its concentration at 24 h is 200

---

# experiment: Plasma level in dogs (HPLC)
# Assay type: in vivo, beagles (dogs)
# condition label: dog, plasma, po, 10 mg/kg, G2-β-CyD inclusion complex, 0.5 h
measurement type: concentration at 0.5 h (ng/mL)
Just the number please, in ng/mL, no unit attached.

Given item CC(C)(Sc1ccc(-n2cncn2)nn1)C(O)(Cn1cncn1)c1ccc(F)cc1F (single isomer, unassigned; (+)) , the value recorded as its concentration at 0.5 h is 2500

---

# experiment: Plasma level in dogs (HPLC)
# Format: in vivo, beagles (dogs)
# condition label: dog, plasma, po, 10 mg/kg, G2-β-CyD inclusion complex, 8 h
measurement type: concentration at 8 h (ng/mL)
Just the number please, in ng/mL, no unit attached.

Given item CC(C)(Sc1ccc(-n2cncn2)nn1)C(O)(Cn1cncn1)c1ccc(F)cc1F (single isomer, unassigned; (+)) , the value recorded as its concentration at 8 h is 2200

---

# experiment: Plasma level in dogs (HPLC)
# Assay type: in vivo, beagles (dogs)
# condition label: dog, plasma, po, 10 mg/kg, G2-β-CyD inclusion complex, 2 h
measurement type: concentration at 2 h
Report field: quantity (unit follows the number).

Given item CC(C)(Sc1ccc(-n2cncn2)nn1)C(O)(Cn1cncn1)c1ccc(F)cc1F (single isomer, unassigned; (+)) , the value recorded as its concentration at 2 h is 2900 ng/mL

---

# experiment: Plasma level in dogs (HPLC)
# Format: in vivo, beagles (dogs)
# condition label: dog, plasma, po, 10 mg/kg, G2-β-CyD inclusion complex, 24 h
measurement type: concentration at 24 h (ng/mL)
Just the number please, in ng/mL, no unit attached.

Given item CC(C)(Sc1ccc(-n2cncn2)nn1)C(O)(Cn1cncn1)c1ccc(F)cc1F (single isomer, unassigned; (+)) , the value recorded as its concentration at 24 h is 700

---

# experiment: Plasma level in dogs (HPLC)
# Assay type: in vivo, beagles (dogs)
# condition label: dog, plasma, po, 10 mg/kg, G2-β-CyD inclusion complex, 3 h
measurement type: concentration at 3 h
Report field: quantity (unit follows the number).

Given item CC(C)(Sc1ccc(-n2cncn2)nn1)C(O)(Cn1cncn1)c1ccc(F)cc1F (single isomer, unassigned; (+)) , the value recorded as its concentration at 3 h is 2600 ng/mL
